EXPERIMENTAL_SYSTEM: T1, human GLP-2 receptor (human, UniProt O95838 1-553)
T1 sequence (looked up): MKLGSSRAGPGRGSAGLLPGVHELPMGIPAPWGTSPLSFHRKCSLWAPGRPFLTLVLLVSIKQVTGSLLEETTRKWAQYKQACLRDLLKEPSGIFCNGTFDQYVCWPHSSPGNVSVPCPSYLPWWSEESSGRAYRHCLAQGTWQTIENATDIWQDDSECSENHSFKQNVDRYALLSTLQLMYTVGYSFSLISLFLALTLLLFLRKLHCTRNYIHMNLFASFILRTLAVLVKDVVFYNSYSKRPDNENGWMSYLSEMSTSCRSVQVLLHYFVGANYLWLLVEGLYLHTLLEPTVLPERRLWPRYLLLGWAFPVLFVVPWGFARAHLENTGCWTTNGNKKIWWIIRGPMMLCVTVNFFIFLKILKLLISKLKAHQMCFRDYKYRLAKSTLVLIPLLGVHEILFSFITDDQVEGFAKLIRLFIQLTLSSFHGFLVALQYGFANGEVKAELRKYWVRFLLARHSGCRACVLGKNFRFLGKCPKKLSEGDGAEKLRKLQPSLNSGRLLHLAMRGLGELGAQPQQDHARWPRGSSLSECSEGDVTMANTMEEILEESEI
PROTOCOL_DESCRIPTION: cell-based or functional assay
Ends that are not written are not given here.
READOUT: EC50_Avg (nM), cAMP AlphaScreen in HEK293 cells expressing hGLP-2R

Below are worked cases with known answers.
INSERT INTO results (binder, recorded_number) VALUES
  ('HGEGTFSSELATILDALAARDFIAWLIATKITDKKKKKK-NH2 [ZP1848]', 0.3),
  ('HGEGTFSSELATILDALAARDFIAWLIATKITDKKK-OH [ZP2949]', 0.11),
  ('HGEGTFSSELATILDALAARDFIAWLIATKITDK-OH [ZP2469]', 0.052);

I. HGEGTFSSELATILDALAARDFIAWLIATKITDKK-OH [ZP2711]
II. HGEGSFSSELSTILDALAARDFIAWLIATKITDKKKKKK-NH2 [ZP1846]
Query: When I and II are compared, which has the higher number for EC50_Avg (nM), cAMP AlphaScreen in HEK293 cells expressing hGLP-2R? Selection: enter the item's label.
Result: II
(II: 0.26 nM, I: 0.072 nM)
